Give measured inhibition for each item. Keep answers brief.
# TARGET UNDER TEST: Protein Mdm4 (Homo sapiens) + E3 ubiquitin-protein ligase Mdm2 (Homo sapiens) (UniProt O15151+Q00987)
# Sequence (O15151 whole entry, looked up): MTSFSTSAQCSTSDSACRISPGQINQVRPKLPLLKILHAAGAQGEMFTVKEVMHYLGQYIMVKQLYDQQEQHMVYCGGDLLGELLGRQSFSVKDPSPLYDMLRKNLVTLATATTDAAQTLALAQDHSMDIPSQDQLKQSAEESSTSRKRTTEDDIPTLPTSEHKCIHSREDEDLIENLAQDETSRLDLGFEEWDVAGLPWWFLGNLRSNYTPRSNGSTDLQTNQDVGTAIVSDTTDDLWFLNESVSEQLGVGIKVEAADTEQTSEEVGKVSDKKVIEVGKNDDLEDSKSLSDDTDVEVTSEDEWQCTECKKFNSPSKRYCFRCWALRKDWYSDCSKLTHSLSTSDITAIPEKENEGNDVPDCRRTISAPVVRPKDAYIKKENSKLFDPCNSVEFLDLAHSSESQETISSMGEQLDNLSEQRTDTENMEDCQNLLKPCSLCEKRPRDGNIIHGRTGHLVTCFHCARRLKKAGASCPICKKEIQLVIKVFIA
# Sequence (Q00987 whole entry, looked up): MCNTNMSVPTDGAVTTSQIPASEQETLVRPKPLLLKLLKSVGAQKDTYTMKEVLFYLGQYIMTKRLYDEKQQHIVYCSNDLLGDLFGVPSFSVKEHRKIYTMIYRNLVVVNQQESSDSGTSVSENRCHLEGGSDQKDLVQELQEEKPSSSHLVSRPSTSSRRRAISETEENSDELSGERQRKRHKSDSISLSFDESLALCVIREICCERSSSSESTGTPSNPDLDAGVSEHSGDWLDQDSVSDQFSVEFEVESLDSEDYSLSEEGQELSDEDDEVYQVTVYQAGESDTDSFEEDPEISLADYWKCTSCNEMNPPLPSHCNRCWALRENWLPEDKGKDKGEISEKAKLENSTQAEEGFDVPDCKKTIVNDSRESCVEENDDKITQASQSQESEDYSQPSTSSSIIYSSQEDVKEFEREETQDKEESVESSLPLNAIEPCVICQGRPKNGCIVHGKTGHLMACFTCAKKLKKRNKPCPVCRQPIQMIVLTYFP
# EXPERIMENT: Mdm2-MdmX complex disruptors, retested hits, confirmation, luminescence, single concentration (AID 489028)
# CONDITION DETAILS: Mdm2-MdmX binding, luminescent assay; at 8 µM; hits give high values
Hit rate of the full screen: of about 10,000 compounds, about 5,600 (56%) were called active. The set was probably picked from earlier hits. A selection follows.
State just the number; it will be interpreted in %.

Look at this compound and give its reported inhibition. CCN(CC)S(=O)(=O)c1ccc(NC(=O)c2cccnc2Cl)c(NC(=O)c2cccnc2Cl)c1 95.8

Also check CCOC(=O)N1CCN(C(=O)c2ccc(S(=O)(=O)c3ccc(C)cc3)c(NC(C)=O)c2)CC1 8.65

# iterate: CC[n+]1cc(C)ccc1/C=C/c1ccc(N(C)C)cc1 53.6

Consider next the compound COc1ccc(OC)c(C2C3=C(N=c4s/c(=C\c5cccc(O)c5)c(=O)n42)c2ccccc2CC3)c1 (stereo not given) in the same way. 28.1

And then O=C1N/C(=C/c2cccn2-c2ccccc2)C(=O)N1c1cccc(Cl)c1 , what is it? 59.4

* * *

# TARGET UNDER TEST: Protein Mdm4 (Homo sapiens) + E3 ubiquitin-protein ligase Mdm2 (Homo sapiens) (UniProt O15151+Q00987)
# EXPERIMENT: Mdm2-MdmX complex disruptors, retested hits, confirmation, luminescence, single concentration (AID 489028)
# CONDITION DETAILS: Mdm2-MdmX binding, luminescent assay; at 8 µM; hits give high values
Out of some 10,000 compounds screened, about 5,600 (56%) were called active. The set was probably picked from earlier hits. Only a sample is shown.
Threshold rule: inhibition greater than or equal to 30% is 1.0; below that, 0.0.

Could you verify whether the entry Cc1c(/C=N\NC(=O)c2cc3ccccc3o2)c2ccccc2n1C shows inhibition of no less than 30%? 1.0

Please answer likewise for CCOC(=O)/C=c1\s/c(=C\c2ccc(C#N)cc2)c(=O)n1CC(=O)Nc1cccc(C)c1C 0.0

Ok, now COc1ccc(C2C(C#N)=C(N)Oc3cc(N)ccc32)cc1OC (stereo not given) 0.0

Request: CC(NC(=O)Nc1ccccc1)C(c1cccs1)N1CCN(c2ccccc2)CC1 (stereo not given) 1.0

And CCOc1ccc(C2c3[nH]c4ccccc4c3CCN2Cc2cccn2-c2ncccn2)cc1 (stereo not given) ? 1.0

What about CN(NC(=O)c1ccccc1)c1nc2ccccc2nc1C(F)(F)F ? 1.0

Let us now turn to CCOc1cc(NC(=O)c2ccco2)c(OCC)cc1NC(=O)COc1ccccc1 0.0

Also NC(N)=N/N=C/c1ccc(OCc2ccc(Cl)cc2Cl)cc1 , if possible. 1.0

Again, but for CS(=O)(=O)c1ccc(-c2nnn(CC(=O)Nc3ccc4c(c3)OCCO4)n2)cc1 0.0

Further, for CC(C)Oc1c(Br)cc(Br)cc1/C=N/NC(N)=S ? 0.0

For Cc1cccc(Nc2nc3c(S(=O)(=O)c4ccccc4)nnn3c3ccccc23)c1C then? 1.0

Next molecule up: O=C(CN1C(=O)c2ccccc2S1(=O)=O)N1CCc2ccccc21 1.0

Please do the same for COc1ccc2cc1Oc1ccc(cc1)C[C@H]1c3cc(c(OC)cc3CCN1C)Oc1c(O)c(OC)cc3c1[C@H](C2)N(C)CC3 as well. 1.0

Lookup Cc1ccc2nc(-c3ccncc3)cc(C(=O)Nc3ccc4c(c3)OCCO4)c2c1 1.0

For CN(NC(=O)c1ccccc1F)c1nc(C(F)(F)F)nc2ccccc12 then? 1.0

How about CC(Nc1nc(C(F)(F)F)nc2ccccc12)c1cccs1 (stereo not given) ? 1.0

Try this molecule too: CN(c1ccc2nc3ccccc3c(=O)n2n1)C1CCCCC1 1.0

// same read-out, input: C#CCOCCOCCOCCNc1nc(N2CCN(C(=O)CCCCCCCCCCNC(=O)[C@H](CCCCN)n3cc(C)nn3)CC2)nc(N2CCN(C(=O)CCCCCCCCCCNC(=O)[C@H](CO)n3cc(CCCSC)nn3)CC2)n1 0.0

Check CN1CCN(c2ccccc2NC(=O)COc2ccc(C3CCCCC3)cc2)CC1 too. 0.0
